Acetylcholinesterase (Electrophorus electricus) data, read-out IC50
Sequence (O42275 whole entry): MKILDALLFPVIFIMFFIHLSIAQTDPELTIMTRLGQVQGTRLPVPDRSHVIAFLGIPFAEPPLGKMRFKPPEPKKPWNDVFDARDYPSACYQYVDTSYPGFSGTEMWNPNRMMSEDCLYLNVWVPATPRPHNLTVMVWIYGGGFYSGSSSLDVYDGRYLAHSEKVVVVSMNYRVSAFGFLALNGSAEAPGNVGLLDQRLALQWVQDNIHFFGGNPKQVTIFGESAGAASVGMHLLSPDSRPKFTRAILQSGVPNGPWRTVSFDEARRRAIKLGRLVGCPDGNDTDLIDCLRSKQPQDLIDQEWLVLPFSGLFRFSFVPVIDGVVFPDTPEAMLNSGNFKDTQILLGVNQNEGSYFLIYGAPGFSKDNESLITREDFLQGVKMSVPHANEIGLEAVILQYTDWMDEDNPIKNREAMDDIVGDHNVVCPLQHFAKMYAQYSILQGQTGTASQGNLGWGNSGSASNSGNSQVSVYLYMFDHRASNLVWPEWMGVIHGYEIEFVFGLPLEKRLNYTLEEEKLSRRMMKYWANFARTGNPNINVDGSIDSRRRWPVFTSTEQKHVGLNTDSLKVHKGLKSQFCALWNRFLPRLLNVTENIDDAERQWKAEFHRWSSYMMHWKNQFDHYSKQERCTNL
READOUT_TYPE: IC50

molecule="CN1c2ccc(O)cc2CN2CCc3c([nH]c4ccccc34)C21 (stereo unspecified)" experimental_value="> 100 µM"
molecule="CCNC(=O)Oc1ccc2c(c1)C(=O)N1CCc3c([nH]c4ccccc34)C1N2C (stereo unspecified)" experimental_value="> 10 µM"
molecule="CCNC(=O)Oc1ccc2c(c1)CN1CCc3c([nH]c4ccccc34)C1N2C (stereo unspecified)" experimental_value="> 10 µM"
molecule="CN1c2ccc(O)cc2C(=O)N2CCc3c([nH]c4ccccc34)C21 (stereo unspecified)" experimental_value="> 100 µM"
molecule="CN1c2ccccc2C(=O)N2CCc3c([nH]c4ccccc34)C21 (stereo unspecified)" experimental_value="> 10 µM"
molecule="COc1cccc(NC(=O)Oc2ccc3c(c2)C(=O)N2CCc4c([nH]c5ccccc45)C2N3C)c1 (stereo unspecified)" experimental_value="> 10 µM"
molecule="CC(C)c1ccc(NC(=O)Oc2ccc3c(c2)C(=O)N2CCc4c([nH]c5ccccc45)C2N3C)cc1 (stereo unspecified)" experimental_value="> 10 µM"
molecule="CN1c2ccc(OC(=O)NCc3ccccc3)cc2C(=O)N2CCc3c([nH]c4ccccc34)C21 (stereo unspecified)" experimental_value="> 10 µM"
molecule="CN1c2ccc(OC(=O)NCc3ccccc3)cc2CN2CCc3c([nH]c4ccccc34)C21 (stereo unspecified)" experimental_value="> 10 µM"
molecule="CN1c2ccc(OCc3ccccc3)cc2C(=O)N2CCc3c([nH]c4ccccc34)C21 (stereo unspecified)" experimental_value="3.01 µM"
molecule="CN1c2ccccc2CN2CCc3c([nH]c4ccccc34)C21 (stereo unspecified)" experimental_value="> 10 µM"
molecule="COc1cccc(NC(=O)Oc2ccc3c(c2)CN2CCc4c([nH]c5ccccc45)C2N3C)c1 (stereo unspecified)" experimental_value="> 10 µM"
molecule="CC(C)c1ccc(NC(=O)Oc2ccc3c(c2)CN2CCc4c([nH]c5ccccc45)C2N3C)cc1 (stereo unspecified)" experimental_value="> 10 µM"
molecule="CCCCNC(=O)Oc1ccc2c(c1)CN1CCc3c([nH]c4ccccc34)C1N2C (stereo unspecified)" experimental_value="> 10 µM"
molecule="CCCCCCCNC(=O)Oc1ccc2c(c1)CN1CCc3c([nH]c4ccccc34)C1N2C (stereo unspecified)" experimental_value="> 10 µM"
molecule="CCCCNC(=O)Oc1ccc2c(c1)C(=O)N1CCc3c([nH]c4ccccc34)C1N2C (stereo unspecified)" experimental_value="> 10 µM"
